# tgt: rat GPR14 (U-II receptor) (Rattus norvegicus, UniProt P49684)
# Sequence (P49684 whole entry): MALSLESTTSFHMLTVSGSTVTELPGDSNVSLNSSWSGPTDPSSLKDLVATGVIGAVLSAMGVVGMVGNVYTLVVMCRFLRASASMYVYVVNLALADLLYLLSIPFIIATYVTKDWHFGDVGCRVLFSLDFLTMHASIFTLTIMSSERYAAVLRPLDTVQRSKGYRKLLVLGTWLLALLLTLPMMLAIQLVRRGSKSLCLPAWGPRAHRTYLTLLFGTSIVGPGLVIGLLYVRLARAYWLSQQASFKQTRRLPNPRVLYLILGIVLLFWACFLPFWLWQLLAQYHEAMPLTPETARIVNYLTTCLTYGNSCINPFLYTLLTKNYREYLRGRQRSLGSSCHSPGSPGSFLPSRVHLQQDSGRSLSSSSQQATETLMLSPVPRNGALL
# protocol-summary: Rat UII Calcium Mobilization FLIPR Assay
# condition-notes: CHO cells transfected with rat GPR14; antagonist activity after 5 min incubation vs agonist (Ac)-CFWK(2-NaI)C-NH2 at 1 nM
IC50 reference

molecule-smiles: CCN1CCN(c2cccc3c2CN([C@H](CCCSc2cccc[n+]2[O-])c2ccc(OC)c(OC)c2)C3=O)CC1
tgt: rat GPR14 (U-II receptor) (Rattus norvegicus, UniProt P49684)
IC50: 11 nM

molecule-smiles: CCN1CCN(c2cccc3c2CN([C@H](CCCNS(=O)(=O)N(C)C)c2ccc(OC)c(OC)c2)C3=O)CC1
tgt: rat GPR14 (U-II receptor) (Rattus norvegicus, UniProt P49684)
IC50: 8 nM

molecule-smiles: COc1ccc([C@@H](CCCN(C)S(=O)(=O)c2cccs2)N2Cc3c(cccc3N3CCN(C4CCC4)CC3)C2=O)cc1OC
tgt: rat GPR14 (U-II receptor) (Rattus norvegicus, UniProt P49684)
IC50: 4 nM

Let's switch to this compound now.
stdin: Quick one: IC50 of `CCN1CCN(c2cccc3c2CN([C@H](CCCN(C)Cc2ccccc2)c2ccc(OC)c(OC)c2)C3=O)CC1` ?
stdout: 4 nM

---

# tgt: Human UII (U-II receptor) in 6D9 human rhabdomyosarcoma cells (Homo sapiens, UniProt Q9UKP6)
# Construct: 6D9: isolated by dilution subcloning of RMS13 cells, ATCC® Number: CRL-2061; host or cells: 6D9 human rhabdomyosarcoma cells (subclone of RMS13)
# Sequence (Q9UKP6 whole entry): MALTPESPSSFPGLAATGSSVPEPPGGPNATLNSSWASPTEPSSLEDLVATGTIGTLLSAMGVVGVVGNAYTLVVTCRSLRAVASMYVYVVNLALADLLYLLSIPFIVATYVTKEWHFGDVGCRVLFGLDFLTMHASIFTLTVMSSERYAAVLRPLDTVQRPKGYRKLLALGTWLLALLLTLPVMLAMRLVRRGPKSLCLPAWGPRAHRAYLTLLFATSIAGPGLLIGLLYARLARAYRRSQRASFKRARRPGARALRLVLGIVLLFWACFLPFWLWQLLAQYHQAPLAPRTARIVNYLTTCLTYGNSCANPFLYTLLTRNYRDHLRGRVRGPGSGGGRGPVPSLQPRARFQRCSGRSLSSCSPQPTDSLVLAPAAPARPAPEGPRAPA
# protocol-summary: Human UII Calcium Mobilization Assay
# Format: cell-based
# condition-notes: 6D9 human rhabdomyosarcoma cells, FLIPR TETRA, average; read-out: Human UII Ca+ Mobilization Average IC50
# Experimental: 25 μL of dye solution was added to the wells such that the final liquid volume before agonist/antagonist treatment was 50 μL for all assays. The cell plates were incubated at 37° C. for 45 minutes and the fluorescence intensity was measured on a Fluorometric Imaging Plate Reader (FLIPR^TETRA, Molecular Devices, Sunnyvale, Calif.). […]
Consider the cut-off 900 nM. If the recorded IC50 is strictly smaller, the label is t; if not, the label is f.

Worked examples follow.
molecule: CCN1CCN(c2cccc3c2CN(C(c2cccc(NS(=O)(=O)c4cccs4)c2)c2ccc(OC)c(OC)c2)C3=O)CC1 (stereo not shown)
label-class: f
--
molecule: CCN1CCN(c2cccc3c2CN([C@H](CCCNC(=O)c2cncn2C)c2ccc(OC)c(OC)c2)C3=O)CC1
label-class: f
--
molecule: CCN1CCN(c2cccc3c2CN([C@H](CCCOCc2ccccc2)c2ccc(OC)c(OC)c2)C3=O)CC1
label-class: t
--
molecule: COc1ccc([C@@H](CCCOc2ccccc2)N2Cc3c(cccc3N3CCN(Cc4ccccc4)CC3)C2=O)cc1OC
label-class: t
--
molecule: CCN1CCN(c2cccc3c2CN([C@H](CCCNC(=O)C(F)(F)F)c2ccc(OC)c(OC)c2)C3=O)CC1
label-class: t

Now look at this one.
stdin: IC50 strictly < 900 nM for this molecule? CCN1CCN(c2cccc3c2CN(C(CC2CCN(Cc4ccccc4)CC2)c2ccc(OC)c(OC)c2)C3=O)CC1 (stereo not shown)
stdout: f

---

# tgt: Human UII (U-II receptor) in 6D9 human rhabdomyosarcoma cells (Homo sapiens, UniProt Q9UKP6)
# Construct: 6D9: isolated by dilution subcloning of RMS13 cells, ATCC® Number: CRL-2061; host or cells: 6D9 human rhabdomyosarcoma cells (subclone of RMS13)
# protocol-summary: Human UII Calcium Mobilization Assay
# Type: cell-based
# condition-notes: 6D9 human rhabdomyosarcoma cells, FLIPR TETRA, average; read-out: Human UII Ca+ Mobilization Average IC50
IC50 reference
The answer consists of two parts: a number and, after it, its unit.

Recorded IC50, per entry:
compound: CCN1CCN(c2cccc3c2CN([C@H](CCCN(C)S(=O)(=O)N(C)C)c2ccc(OC)c(OC)c2)C3=O)CC1 [Cpd 1]
endpoint-result: 204 nM
--
compound: CCN1CCN(c2cccc3c2CN([C@H](CCCNCc2ccccc2)c2ccc(OC)c(OC)c2)C3=O)CC1 [Cpd 77]
endpoint-result: 47 nM
--
compound: CCN1CCN(c2cccc3c2CN([C@H](CCCN(Cc2ccccc2)C(C)C)c2ccc(OC)c(OC)c2)C3=O)CC1 [Cpd 96]
endpoint-result: 152 nM
--
compound: CCN1CCN(c2cccc3c2CN([C@H](CCCNCc2cccs2)c2ccc(OC)c(OC)c2)C3=O)CC1 [Cpd 72]
endpoint-result: 59 nM
--
compound: COc1ccc([C@@H](CCCNc2nccc(C(F)(F)F)n2)N2Cc3c(cccc3N3CCN(C4CC4)CC3)C2=O)cc1OC [Cpd 4]
endpoint-result: 7010 nM

stdin: Quick one: IC50 of COc1ccc([C@@H](CCCN(C)S(=O)(=O)c2cccs2)N2Cc3c(cccc3N3CCN(C4CCC4)CC3)C2=O)cc1OC [Cpd 9] ?
stdout: 511 nM

stdin: Try this compound too: CCN1CCN(c2cccc3c2CN([C@H](CCCNS(N)(=O)=O)c2ccc(OC)c(OC)c2)C3=O)CC1 [Cpd 58]
stdout: 449 nM
